tested on: Caco-2; experiment: cell viability relative to DMSO; higher = less toxic; details: 72 h; 100 nM
Param label: returns fulfilled when cell viability < 90%, returns not fulfilled otherwise, including exact equality.

### Prompt Could you please tell me whether cell viability recorded for COc1c(O[C@@H]2O[C@H](CO)[C@@H](O)[C@H](O)[C@H]2O)cc2c(c1OC)-c1ccc(SC)c(=O)cc1[C@@H](NC(C)=O)CC2 [thiocolchicoside] is less than 90%?
### Response fulfilled

### Prompt Now the molecule O=C(O[C@H]1C[C@H]2CC[C@@H](C1)[N+]21CCCC1)C(O)(c1ccccc1)c1ccccc1
### Response not fulfilled

### Prompt Now the molecule N[C@@H](CCNCc1ccc(Cl)cc1)C(=O)N1CCCCC1
### Response not fulfilled

### Prompt Now the molecule COc1ccc(-n2c(SCc3nc(-c4ccc(C)cc4)no3)nnc2-c2ccncc2)cc1
### Response not fulfilled

### Prompt Now the molecule O=C(O)C1=CCCN(CCOC(c2ccc(C(F)(F)F)cc2)c2ccc(C(F)(F)F)cc2)C1
### Response not fulfilled

----------
Reported values of cell viability for individual entries
system: HepG2; assay: cell viability relative to DMSO; higher = less toxic; settings: 72 h; 10 nM
// units = %; emit number, no label

Worked examples, 8 molecules total:
* c1cc(OCCN2CCCCC2)cc(-c2n[nH]c3ccc(-c4nnc[nH]4)cc23)c1 | 96.7
* Oc1c(I)cc(I)c2cccnc12 | 99
* Cc1c(S(=O)(=O)O)oc2c1C(=O)C(=O)c1c-2ccc2c1CCCC2(C)C [sodium-tanshinone-II-A-sulfonate] | 92.2
* CCCn1c(=O)c(C)cn2nc(N)nc12 | 95
* CN[C@@H](C)C(=O)N[C@H](C(=O)N1CCC[C@H]1C(=O)Nc1snnc1-c1ccccc1)C1CCCCC1 | 105
* Cc1ccc(S(=O)(=O)NC2c3ccccc3Oc3ccccc32)cc1 | 91.5
* O=C(O[C@H]1C[C@H]2CC[C@@H](C1)[N+]21CCCC1)C(O)(c1ccccc1)c1ccccc1 | 93.8
* O=c1cc[nH]c(=O)[nH]1 | 94

### Prompt Can you share its cell viability? I mean this molecule: CCOC(=O)c1ncn2c1CN(C)C(=O)c1cc(F)ccc1-2
### Response 95

### Prompt Now the molecule CC1(C)O[C@@H]2C[C@H]3[C@@H]4CCC5=CC(=O)C=C[C@]5(C)[C@H]4[C@@H](O)C[C@]3(C)[C@]2(C(=O)CO)O1 [desonide]
### Response 101

### Prompt Now the molecule O=C(c1cc(S(=O)(=O)Nc2ccccc2F)c(F)cc1Cl)N1CCN2CCC[C@@H]2C1
### Response 106

### Prompt Now the molecule O=C1c2cccnc2OC[C@@H]2CCCN12
### Response 98.8

----------
tested on: HepG2; assay: cell viability relative to DMSO; higher = less toxic; conditions: 72 h; 100 nM
parameter: cell viability (%)
// units = %; emit number, no label

Worked examples, 7 compounds total:
* COc1cc(C[C@H]2C(=O)OC[C@@H]2Cc2ccc(OC)c(OC)c2)ccc1O | 96.6
* O=C(O)c1ccc(/C=C2\SC(=S)N(c3cccc(C(F)(F)F)c3)C2=O)cc1 | 96.2
* O=C(Nc1ccccc1)c1ccccc1O [salicylanilide] | 94.4
* CN1CCc2nc(C(=O)N[C@@H]3C[C@@H](C(=O)N(C)C)CC[C@@H]3NC(=O)C(=O)Nc3ccc(Cl)cn3)sc2C1 | 106
* O=C(NC1CCN(CCc2c[nH]c3ccccc23)CC1)c1ccccc1 | 105
* CN1CCN(CCc2ccc(Cl)c(Cl)c2)CC1 | 103
* COc1cc2c(cc1OC(C)C)[C@H](c1ccc(Cl)cc1)N(c1ccc(N(C)C[C@H]3CC[C@H](N4CCN(C)C(=O)C4)CC3)cc1)C(=O)C2 | 100

Shifting focus to the compound that follows.
### Prompt Can you share its cell viability? I mean this compound: c1cc(OCCN2CCCCC2)cc(-c2n[nH]c3ccc(-c4nnc[nH]4)cc23)c1
### Response 88.4

----------
system: Caco-2; assay: cell viability relative to DMSO; higher = less toxic; details: 72 h; 1 nM
parameter: cell viability (%)
// units = %; emit number, no label

Worked examples, 6 molecules total:
- N[C@H](Cc1c[nH]cn1)C(=O)O [copper-histidine]: 106
- O=C(O)CSc1nnc(Br)n1-c1ccc(C2CC2)c2ccccc12 [lesinurad]: 98.4
- OCCCNc1cc(-c2ccnc(Nc3cccc(Cl)c3)n2)ccn1: 95.9
- CCCCC/N=c1\ccn(Cc2ccccc2)c2ccccc12: 93.3
- CCCCNc1ncc(-c2ccc(CN3CCOCC3)cn2)c(N[C@H]2CC[C@H](O)CC2)n1 [UNC2250]: 97.1
- Nc1ncnc2c1ncn2[C@H]1CC[C@@H](CO)O1 [dideoxyadenosine]: 98.6

### Prompt Can you share its cell viability? I mean this molecule: CNS(=O)(=O)Nc1nccc(Cc2c(C)c3ccc(Oc4ncccn4)cc3oc2=O)c1F
### Response 99.8

### Prompt Now the molecule Cc1cc(OCc2nc(-c3ccccc3Cl)cs2)ccc1OCC(=O)O [GPR120-modulator-1]
### Response 102

### Prompt Now the molecule CC(C)[C@H](O)C(=O)N[C@@H](C)C(=O)N[C@@H]1C(=O)N(C)CCc2ccccc21 [semagacestat]
### Response 96.2

### Prompt Now the molecule Cc1ncc([N+](=O)[O-])n1CCO [metronidazole]
### Response 100

----------
Reported values of cell viability for individual entries
test system: Calu-3; assay: cell viability relative to DMSO; higher = less toxic; details: 72 h; 100 nM
// units = %; emit number, no label

Worked examples, 5 compounds total:
- CCCn1c(=O)c(C)cn2nc(N)nc12: 102
- Cn1c(CNc2ccc(C(=N)N)cc2)nc2cc(C(=O)N(CCC(=O)O)c3ccccn3)ccc21: 90.1
- NC(=O)CNCCC(c1ccccc1)c1ccccc1 [N20C]: 96.6
- CN(C)C(=O)c1cc2cnc(Nc3ccc(N4CCNCC4)cn3)nc2n1C1CCCC1: 94
- NC(=O)N/N=C/c1ccc([N+](=O)[O-])o1: 105

### Prompt Can you share its cell viability? I mean this compound: Cc1ncc([N+](=O)[O-])n1CCO
### Response 109

### Prompt Now the compound CC1(C)Oc2ccc(C#N)cc2[C@H](N(Cc2ncc[nH]2)c2ccc(Cl)cc2)[C@H]1O
### Response 105

### Prompt Now the compound CC(C)c1onc(-c2c(Cl)cccc2Cl)c1COc1ccc(/C=C/c2cccc(C(=O)O)c2)c(Cl)c1
### Response 103

### Prompt Now the compound COc1ccc(-n2c(SCc3nc(-c4ccc(C)cc4)no3)nnc2-c2ccncc2)cc1
### Response 109

### Prompt Now the compound COc1cc2nccc(Oc3ccc(NC(=O)NC4CC4)c(Cl)c3)c2cc1C(N)=O
### Response 89.6

### Prompt Now the compound CCCN1CCC[C@@H]2Cc3n[nH]cc3C[C@H]21 [quinpirol-(-)]
### Response 98.5

### Prompt Now the compound C[C@@H](c1ncncc1F)[C@](O)(Cn1cncn1)c1ccc(F)cc1F
### Response 92.4

### Prompt Now the compound CN(C)Cc1cccc(N/C(=C2\C(=O)Nc3cc(C(N)=O)ccc32)c2ccccc2)c1
### Response 96.3

----------
tested on: Caco-2; experiment: cell viability relative to DMSO; higher = less toxic; conditions: 72 h; 10000 nM
Reported values of cell viability for individual entries
// units = %; emit number, no label

Worked examples, 5 molecules total:
• O=c1cc[nH]c(=O)[nH]1 = 98.5
• O=C(O)c1ccc(-n2nc(-c3ccccc3O)nc2-c2ccccc2O)cc1 = 58.8
• CCCCc1nc(Cl)c(CO)n1Cc1ccc(-c2ccccc2-c2nnn[nH]2)cc1 = 95.5
• C[C@]12CC[C@@H]3c4ccc(OS(=O)(=O)O)cc4CC[C@H]3[C@@H]1CCC2=O [estropipate] = 93.4
• CCCN(CCC)C(=O)C(CCC(=O)OCCCN1CCN(CCOC(=O)Cc2c(C)n(C(=O)c3ccc(Cl)cc3)c3ccc(OC)cc23)CC1)NC(=O)c1ccccc1 (configuration not stated) = 108

### Prompt Entry O=C(Cc1cccc(OC(F)(F)F)c1)Nc1ccc(CCCCc2nnc(NC(=O)Cc3ccccn3)s2)nn1 , system Caco-2: what cell viability was measured?
### Response 106

### Prompt Now the molecule CCOC(=O)Nc1ccc2c(c1)N(C(=O)CCN1CCOCC1)c1ccccc1S2
### Response 80.8

### Prompt Now the molecule NC(=O)N1c2ccccc2CC(O)c2ccccc21 (configuration not stated) [licarbazepine]
### Response 91.5

### Prompt Now the molecule Cc1ccc(/C=C2/C(=O)C3(C)CCC2C3(C)C)cc1 (configuration not stated)
### Response 95.9

### Prompt Now the molecule CN(C)C(=O)c1cc2cnc(Nc3ccc(N4CCNCC4)cn3)nc2n1C1CCCC1
### Response 90.3

### Prompt Now the molecule O=C1C=Cc2cc(Br)ccc2C1=O
### Response 94.4
